Ref: patent US7008954B1

Reported % Th1 values for a set of molecules
test system: differentiation from Th0 cells to Th2 cells; experiment: Inhibitory effect on induction of differentiation from Th0 cells to Th2 cells (DNP-As immunized mice, popliteal lymph node, intracellular cytokine FACS); assay type: in vivo, BALB/c mice; conditions: BALB/c mice immunized with DNP-As/Alum; 40 mg/kg orally daily for 6 days; popliteal lymph node 6 days after immunization; n = 3
OUTCOME MEASURE: % Th1 (%)

[[record]]
smiles_code = "CC(C)=CCNc1ccc(-c2cc(C)c(-c3cnc(OCC=C(C)C)nc3)cc2C)c(F)c1"
test_result = 0.53

[[record]]
smiles_code = "COc1c(C)c(-c2ccc(NCC=C(C)C)cc2)c(C)c(C)c1-c1ccc(OCC=C(C)C)c(F)c1"
test_result = 0.29

[[record]]
smiles_code = "COc1c(C)c(-c2ccc(NCC=C(C)C)c(F)c2)c(OC)c(C)c1-c1ccc(NCC=C(C)C)nc1"
test_result = 0.34

[[record]]
smiles_code = "CC(C)=CCNc1ccc(-c2cc(C)c(-c3cnc(OCC=C(C)C)nc3)cc2C)c(C)c1"
test_result = 0.46

[[record]]
smiles_code = "COc1c(C)c(-c2ccc(NCC=C(C)C)cc2)c(C)c(C)c1-c1ccc(OCC(F)(F)F)nc1"
test_result = 0.40

[[record]]
smiles_code = "CC(C)=CCNc1ccc(-c2cc(C)c(-c3ccc(OCC=C(C)C)nc3)cc2C)c(F)c1"
test_result = 0.66

[[record]]
smiles_code = "COc1c(C)c(-c2ccc(OCC(C)C)c(O)c2)c(C)c(C)c1-c1ccc(NCC=C(C)C)cc1"
test_result = 0.45


----------
Reported % Th2 values for a set of compounds
system: differentiation from Th0 cells to Th2 cells; assay: Inhibitory effect on induction of differentiation from Th0 cells to Th2 cells (DNP-As immunized mice, popliteal lymph node, intracellular cytokine FACS); assay type: in vivo, BALB/c mice; details: BALB/c mice immunized with DNP-As/Alum; 40 mg/kg orally daily for 6 days; popliteal lymph node 6 days after immunization; n = 3
OUTCOME MEASURE: % Th2 (%)

[[record]]
smiles_code = "COc1c(C)c(-c2ccc(NCC=C(C)C)cc2)c(C)c(C)c1-c1ccc(OCC(F)(F)F)nc1"
outcome_measure = "% Th2"
test_result = 0.08

[[record]]
smiles_code = "CC(C)=CCNc1ccc(-c2cc(C)c(-c3cnc(OCC=C(C)C)nc3)cc2C)c(F)c1"
outcome_measure = "% Th2"
test_result = 0.05

[[record]]
smiles_code = "COc1c(C)c(-c2ccc(NCC=C(C)C)cc2)c(C)c(C)c1-c1ccc(OCC=C(C)C)c(F)c1"
outcome_measure = "% Th2"
test_result = 0.07

[[record]]
smiles_code = "COc1c(C)c(-c2ccc(OCC(C)C)c(O)c2)c(C)c(C)c1-c1ccc(NCC=C(C)C)cc1"
outcome_measure = "% Th2"
test_result = 0.20

[[record]]
smiles_code = "CC(C)=CCNc1ccc(-c2cc(C)c(-c3ccc(OCC=C(C)C)nc3)cc2C)c(F)c1"
outcome_measure = "% Th2"
test_result = 0.03

[[record]]
smiles_code = "COc1c(C)c(-c2ccc(NCC=C(C)C)c(F)c2)c(OC)c(C)c1-c1ccc(NCC=C(C)C)nc1"
outcome_measure = "% Th2"
test_result = "−0.01"

[[record]]
smiles_code = "CC(C)=CCNc1ccc(-c2cc(C)c(-c3cnc(OCC=C(C)C)nc3)cc2C)c(C)c1"
outcome_measure = "% Th2"
test_result = 0.05

